Kindly state Neutralization IC50 (RSV subtype A) for each of the entries shown.
# SYSTEM NAME: Respiratory Syncytial Virus fusion glycoprotein (RSV F) on RSV-A2 virus (Respiratory Syncytial Virus subtype A (RSV-A2))
# ASSAY OVERVIEW: cell-based or functional assay

{"columns": ["BINDER", "Neutralization IC50 (RSV subtype A)"],
 "data": [
  ["ADI-41190 (antibody, V domains shown) VH: QVQLVQSGAEVKKPGASVKVSCKAFGYTFRSYDMQWVRQAPGQRLEWMGWINAVNGDTKYSQKFQGRVTITRDTSATTVYMELSSLRSEDTAVYYCARWGRFWNSRSLDYYAMDVWGQGTTVTVSS VL: DIVMTQSPGTLSLSPGERATLSCRASQSISSSYLVWYQHKPGQAPRLLIYGASTRATDIPDRFSGSGSGTDFTLTISRLEPEDFAVYYCQQYGSSPLTFGQGTRLEIK", "> 25 µg/mL"],
  ["ADI-41161 (antibody, V domains shown) VH: EVQLVESGGGLVQPGGSLRLSCAASGFTFSTFEFNWVRQAPGKGLEWLSYISSDDTTRYYADSVKGRFTISRDNAKNSLYLQMNSLRAEDTAYYYCVRGGPYDYVWGTYRYFDFWGQGTLVTVSS VL: QSVLTQPASVSGSPGQSITISCTGTSSDIGGYNYVSWYQQHPGKAPKLMIYDVTNRPLGVSNRFSGSKSGNTASLIISGLQAEDEAEYYCCSYTSSNSLVFGGGTKLTVL", "> 25 µg/mL"],
  ["ADI-41147 (antibody, V domains shown) VH: EVQLVESGGGLVKPGGSLRLSCAASGFTLSGYYMSWVRQAPGKGLEWISYISGGSTYTNYADSVNGRFTISRDNAKNSLYLQMDSLRAEDTAVYYCARLEYGDYGPYYLGLWGRGTLVTVSS VL: QSVLTQPPSVSGAPGQRVTISCTGTSSNIGAGYDVHWYQKLPGTAPKLLIYANNNRPSGVPDRFSGSKSGTSASLAITGLQAEDEADYYCQSYDTSLSAHYVFGTGTKLTVL", "0.06 µg/mL"]
]}

Below are 2 binders. Give each one its Neutralization IC50 (RSV subtype A).
1. ADI-41215 (antibody, V domains shown) VH: QVQLVESGGGVVRPGGSLRLSCAASGFTFDDYGMSWVRQAPGKGLEWVSGINWSGGSTDYADSVKGRFTISRDNAKNSLYLQMNSLRAEDTALYYCAKEGQEWELLPWYFDLWGRGTLVTVSS VL: QPVLTQPASVSGSPGQSITIPCTGTSSDVGIYNLVSWYQQHPGKAPKLMIYDVSKRPSGVSNRFSGSKSGNTASLTISGLQAEDEADYYCCSYAGGSTYVFGTGTKLTVL
2. ADI-41210 (antibody, V domains shown) VH: QVQLVQSGAEVKKPGASVKVSCKASGYTFNNYGISWVRQAPGQGLEWMGWISAYNGDIKYAQKFQGRVTVTTDTSTSTAYMELRSLRSDDTAVYYCARDTPVGGGTQTFDYWGQGTLVTVSS VL: ETTLTQSPLSLPVTLGQPASISCRSSQSLVHSNGNTYLNWFQQRPGQSPRRLIYTVSNRDSGVPDRFSGSGSGTDFTLKISRVEAEDVGVYYCMQATHRPGTFGQGTKVEIK

0.32 µg/mL
0.1 µg/mL
